Protocol: Mechanical properties of batches of Solid Form A
Format: physicochemical
Applied conditions: lots of Solid Form A; A2 and A9 unmilled, A3 and A6/A7 milled
Measured Compromised Tensile strength (MPa), Value accompanies every entry in the list below.
Use MPa as the unit, but write only the number.

Answered examples (3):
Molecule | Endpoint value
CC1CN(Cc2ncccn2)CC1c1nc2c(cnn2C2CCOCC2)c(=O)[nH]1 (stereo not shown) [A9] | 0.302
CC1CN(Cc2ncccn2)CC1c1nc2c(cnn2C2CCOCC2)c(=O)[nH]1 (stereo not shown) [A3] | 0.488
CC1CN(Cc2ncccn2)CC1c1nc2c(cnn2C2CCOCC2)c(=O)[nH]1 (stereo not shown) [A2] | 0.274

Okay, next one:
Query: In one line, give reported Compromised Tensile strength (MPa), Value of the entry CC1CN(Cc2ncccn2)CC1c1nc2c(cnn2C2CCOCC2)c(=O)[nH]1 (stereo not shown) [A6/A7] .
Response: 0.393

---

Protocol: Organic solubility: gravimetric (TGA) solubility at 25° C.
Type: physicochemical
Applied conditions: ethanol (EtOH), organic solvent or mixture, thermodynamic from solid, EtOH, read-out: Solubility
Endpoint name: solubility
Report the figure along with its unit, number first.

Query: In one line, give reported solubility of the entry C[C@@H]1CN(Cc2ncccn2)C[C@H]1c1nc2c(cnn2C2CCOCC2)c(=O)[nH]1 [Solid Form A] .
Response: 63.4 mg/mL

---

Protocol: Particle size of batches of Solid Form A
Type: physicochemical
Applied conditions: batches of Solid Form A, milled or unmilled per batch; listed as A7
Endpoint name: Particle size D[v, 0.1] (µm)
Use µm as the unit, but write only the number.

Query: In one line, give reported Particle size D[v, 0.1] of the entry CC1CN(Cc2ncccn2)CC1c1nc2c(cnn2C2CCOCC2)c(=O)[nH]1 (stereo not shown) .
Response: 6.17

---

Protocol: Thermodynamic solubility assessment of Solid Form B
Format: physicochemical
Applied conditions: buffer, aqueous buffer, thermodynamic from solid; pH 4.5, 25° C., 24 hours; read-out: Thermodynamic solubility
Endpoint name: solubility thermodynamic at 24 h

Query: In one line, give reported solubility thermodynamic at 24 h of the entry C[C@@H]1CN(Cc2ncccn2)C[C@H]1c1nc2c(cnn2C2CCOCC2)c(=O)[nH]1 [Solid Form B] .
Response: > 150 mg/mL

---

Protocol: Solubility of Solid Form A and amorphous Compound X in various solvents at room temperature
Type: physicochemical
Applied conditions: chloroform, organic solvent or mixture
Endpoint name: solubility

Query: In one line, give reported solubility of the entry C[C@@H]1CN(Cc2ncccn2)C[C@H]1c1nc2c(cnn2C2CCOCC2)c(=O)[nH]1 [Solid Form A] .
Response: > 57.5 mg/mL

---

Protocol: Organic solubility: gravimetric (TGA) solubility at 25° C.
Format: physicochemical
Applied conditions: organic solvent or mixture, thermodynamic from solid, Acetone, read-out: Solubility
Endpoint name: solubility (mg/mL)
Use mg/mL as the unit, but write only the number.

Query: In one line, give reported solubility of the entry C[C@@H]1CN(Cc2ncccn2)C[C@H]1c1nc2c(cnn2C2CCOCC2)c(=O)[nH]1 [Solid Form A] .
Response: 49.4

---

Protocol: Solubility of Solid Form A and amorphous Compound X in various solvents at room temperature
Assay type: physicochemical
Applied conditions: acetone, organic solvent or mixture
Endpoint name: solubility

Query: In one line, give reported solubility of the entry C[C@@H]1CN(Cc2ncccn2)C[C@H]1c1nc2c(cnn2C2CCOCC2)c(=O)[nH]1 [amorphous Compound X] .
Response: > 79.7 mg/mL

---

Protocol: True density of Solid Form A
Assay type: physicochemical
Applied conditions: lots of Solid Form A; A2 and A9 unmilled, A3 and A6/A7 milled
Endpoint name: True density (g/cm3), Value
Report the figure along with its unit, number first.

Compound | True density (g/cm3), Value
CC1CN(Cc2ncccn2)CC1c1nc2c(cnn2C2CCOCC2)c(=O)[nH]1 (stereo not shown) [A2] | 1.28 g/cm3
CC1CN(Cc2ncccn2)CC1c1nc2c(cnn2C2CCOCC2)c(=O)[nH]1 (stereo not shown) [A6/A7] | 1.29 g/cm3
CC1CN(Cc2ncccn2)CC1c1nc2c(cnn2C2CCOCC2)c(=O)[nH]1 (stereo not shown) [A3] | 1.29 g/cm3

Okay, next one:
Query: In one line, give reported True density (g/cm3), Value of the entry CC1CN(Cc2ncccn2)CC1c1nc2c(cnn2C2CCOCC2)c(=O)[nH]1 (stereo not shown) [A9] .
Response: 1.29 g/cm3

---

Protocol: Mechanical properties of batches of Solid Form A
Format: physicochemical
Applied conditions: lots of Solid Form A; A2 and A9 unmilled, A3 and A6/A7 milled
Endpoint name: Compression stress, Rating

Compound | Endpoint value
CC1CN(Cc2ncccn2)CC1c1nc2c(cnn2C2CCOCC2)c(=O)[nH]1 (stereo not shown) [A6/A7] | Moderate
CC1CN(Cc2ncccn2)CC1c1nc2c(cnn2C2CCOCC2)c(=O)[nH]1 (stereo not shown) [A2] | Moderate
CC1CN(Cc2ncccn2)CC1c1nc2c(cnn2C2CCOCC2)c(=O)[nH]1 (stereo not shown) [A3] | Moderate
CC1CN(Cc2ncccn2)CC1c1nc2c(cnn2C2CCOCC2)c(=O)[nH]1 (stereo not shown) [A9] | Moderate

---

Protocol: Solubility of Solid Form A and amorphous Compound X in various solvents at room temperature
Assay type: physicochemical
Applied conditions: glyme (1,2-dimethoxyethane), organic solvent or mixture
Endpoint name: solubility

Query: In one line, give reported solubility of the entry C[C@@H]1CN(Cc2ncccn2)C[C@H]1c1nc2c(cnn2C2CCOCC2)c(=O)[nH]1 [Solid Form A] .
Response: > 63 mg/mL

---

Protocol: Mechanical properties of batches of Solid Form A
Assay type: physicochemical
Applied conditions: lots of Solid Form A; A2 and A9 unmilled, A3 and A6/A7 milled

Molecule | Brittle fracture index, Rating
CC1CN(Cc2ncccn2)CC1c1nc2c(cnn2C2CCOCC2)c(=O)[nH]1 (stereo not shown) [A6/A7] | Low
CC1CN(Cc2ncccn2)CC1c1nc2c(cnn2C2CCOCC2)c(=O)[nH]1 (stereo not shown) [A2] | Low
CC1CN(Cc2ncccn2)CC1c1nc2c(cnn2C2CCOCC2)c(=O)[nH]1 (stereo not shown) [A3] | Low

---

Protocol: Solubility of Solid Form A and amorphous Compound X in various solvents at room temperature
Assay type: physicochemical
Applied conditions: water, H2O (Water)
Endpoint name: solubility

Query: In one line, give reported solubility of the entry C[C@@H]1CN(Cc2ncccn2)C[C@H]1c1nc2c(cnn2C2CCOCC2)c(=O)[nH]1 [Solid Form A] .
Response: 35.3 mg/mL

---

Protocol: Solubility of Solid Form A and amorphous Compound X in various solvents at room temperature
Assay type: physicochemical
Applied conditions: nitromethane, organic solvent or mixture
Endpoint name: solubility

Query: In one line, give reported solubility of the entry C[C@@H]1CN(Cc2ncccn2)C[C@H]1c1nc2c(cnn2C2CCOCC2)c(=O)[nH]1 [Solid Form A] .
Response: > 74.9 mg/mL

---

Protocol: Mechanical properties of batches of Solid Form A
Type: physicochemical
Applied conditions: lots of Solid Form A; A2 and A9 unmilled, A3 and A6/A7 milled
Endpoint name: Brittle fracture index, Value
Lab note: record the figure alone, no unit after it.

Answered examples (3):
Molecule | Brittle fracture index, Value
CC1CN(Cc2ncccn2)CC1c1nc2c(cnn2C2CCOCC2)c(=O)[nH]1 (stereo not shown) [A2] | 0.0486
CC1CN(Cc2ncccn2)CC1c1nc2c(cnn2C2CCOCC2)c(=O)[nH]1 (stereo not shown) [A6/A7] | 0.022
CC1CN(Cc2ncccn2)CC1c1nc2c(cnn2C2CCOCC2)c(=O)[nH]1 (stereo not shown) [A9] | −0.077

Okay, next one:
Query: In one line, give reported Brittle fracture index, Value of the entry CC1CN(Cc2ncccn2)CC1c1nc2c(cnn2C2CCOCC2)c(=O)[nH]1 (stereo not shown) [A3] .
Response: 0.139

---

Measured Tensile strength (MPa), Value accompanies every entry in the list below.
Protocol: Mechanical properties of batches of Solid Form A
Format: physicochemical
Applied conditions: lots of Solid Form A; A2 and A9 unmilled, A3 and A6/A7 milled
Use MPa as the unit, but write only the number.

Compound | Unit | Tensile strength (MPa), Value
CC1CN(Cc2ncccn2)CC1c1nc2c(cnn2C2CCOCC2)c(=O)[nH]1 (stereo not shown) [A2] | MPa | 0.3
CC1CN(Cc2ncccn2)CC1c1nc2c(cnn2C2CCOCC2)c(=O)[nH]1 (stereo not shown) [A9] | MPa | 0.255
CC1CN(Cc2ncccn2)CC1c1nc2c(cnn2C2CCOCC2)c(=O)[nH]1 (stereo not shown) [A6/A7] | MPa | 0.41

Okay, next one:
Query: In one line, give reported Tensile strength (MPa), Value of the entry CC1CN(Cc2ncccn2)CC1c1nc2c(cnn2C2CCOCC2)c(=O)[nH]1 (stereo not shown) [A3] .
Response: 0.624

---

Protocol: Organic solubility: gravimetric (TGA) solubility at 25° C.
Assay type: physicochemical
Applied conditions: ethyl acetate (EtOAc), organic solvent or mixture, thermodynamic from solid, EtOAc, read-out: Solubility
Endpoint name: solubility

Query: In one line, give reported solubility of the entry C[C@@H]1CN(Cc2ncccn2)C[C@H]1c1nc2c(cnn2C2CCOCC2)c(=O)[nH]1 [Solid Form A] .
Response: 44.7 mg/mL

These data points were gathered from patent US12012412B2.
